# measurement_target: OCTN2 (organic cation/carnitine transporter 2) (Mus musculus)
# procedure_details: TP_TRANSPORTER: inhibition of Carnitine uptake (Carnitine: 0.01 uM, Acetylcholine: 5000 uM) in OCTN2-expressing HEK293 cells
# Format: functional, cell-based
# Parameters: scale not given: the % may be the effect or the level left
# experimental_parameters: human, HEK293 cells that express OCTN2, probe carnitine; read-out: Activity
test_readout: activity at 5000 µM (%)
Report as a plain number; the unit % is understood.

Which measured activity at 5000 µM value corresponds to CC(=O)OCC[N+](C)(C)C [ACETYLCHOLINE] ?
34.2

###

# measurement_target: OCTN2 (organic cation/carnitine transporter 2) (Mus musculus)
# procedure_details: TP_TRANSPORTER: inhibition of Carnitine uptake (Carnitine: 0.01 uM, Norepinephrine: 5000 uM) in OCTN2-expressing HEK293 cells
# Assay type: functional, cell-based
# Set-up: scale not given: the % may be the effect or the level left
# experimental_parameters: human, HEK293 cells that express OCTN2, probe carnitine; read-out: Activity
test_readout: activity at 5000 µM (%)
Report as a plain number; the unit % is understood.

Form entry - test system: OCTN2 (organic cation/carnitine transporter 2) (Mus musculus); read-out: activity at 5000 µM; compound: NC[C@H](O)c1ccc(O)c(O)c1 [NOREPINEPHRINE]
70.9

###

# measurement_target: OCTN2 (organic cation/carnitine transporter 2) (Mus musculus)
# Sequence (Q9Z0E8 whole entry): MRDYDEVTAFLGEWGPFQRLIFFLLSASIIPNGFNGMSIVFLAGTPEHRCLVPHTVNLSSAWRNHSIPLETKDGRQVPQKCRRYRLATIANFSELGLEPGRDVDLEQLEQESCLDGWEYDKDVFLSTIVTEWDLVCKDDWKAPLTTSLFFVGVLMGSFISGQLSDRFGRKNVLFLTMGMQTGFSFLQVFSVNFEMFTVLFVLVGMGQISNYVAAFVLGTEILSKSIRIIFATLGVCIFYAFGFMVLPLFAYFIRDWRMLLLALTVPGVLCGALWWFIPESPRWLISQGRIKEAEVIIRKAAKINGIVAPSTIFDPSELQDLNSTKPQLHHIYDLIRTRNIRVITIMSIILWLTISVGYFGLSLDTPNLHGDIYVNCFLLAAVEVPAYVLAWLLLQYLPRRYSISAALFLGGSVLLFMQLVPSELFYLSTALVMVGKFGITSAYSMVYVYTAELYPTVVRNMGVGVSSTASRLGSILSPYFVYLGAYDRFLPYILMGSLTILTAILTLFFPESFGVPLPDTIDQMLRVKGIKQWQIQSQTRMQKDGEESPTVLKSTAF
# procedure_details: in vitro
# experimental_parameters: human, HEK293 cells that express OCTN2, probe carnitine
# Description: TP_TRANSPORTER: inhibition of Carnitine uptake (Carnitine: 0.01 uM, TEA: 500 uM) in OCTN2-expressing HEK293 cells
test_readout: activity at 500 µM (%)
Report as a plain number; the unit % is understood.

Form entry - test system: OCTN2 (organic cation/carnitine transporter 2) (Mus musculus); read-out: activity at 500 µM; compound: CC[N+](CC)(CC)CC [TETRYLAMMONIUM]
15.4

###

# measurement_target: OCTN2 (organic cation/carnitine transporter 2) (Mus musculus, UniProt Q9Z0E8)
# procedure_details: in vitro
# experimental_parameters: human, HEK293 cells that express OCTN2, probe carnitine
# Description: TP_TRANSPORTER: inhibition of Carnitine uptake (Carnitine: 0.01 uM, Thiamine: 5000 uM) in OCTN2-expressing HEK293 cells
test_readout: activity at 5000 µM (%)
Report as a plain number; the unit % is understood.

Which measured activity at 5000 µM value corresponds to Cc1ncc(C[n+]2csc(CCO)c2C)c(N)n1 [THIAMINE ION] ?
65.9
